# protocol summary: AP1 Signaling Pathway (AID 357);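 also: ME-180 reporter cells stimulated with EGF at its EC50 level; % is scaled to controls: 0 for no effect and ±100 for the full control effect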
# condition: ME-180 (cervical carcinoma) AP-1-bla reporter, EGF-induced, beta-lactamase ratio, 5 h; at 7.69 µM (top of the series) unless noted
Inconclusive results are not listed. The source made the active and inactive calls. Calls follow the shape of the dose curve; as a rule, active = well fitted curve in either direction with a large enough effect (not every such curve was filed as active); inconclusive = small, poorly fitted or top-dose-only effect, or another doubt; inactive = flat fitted curve, though single readings scatter.
Quick list: activity change, negative = inhibition per entry.

chem smiles: O=C(Nc1ccccc1)N1CCC2(CCNCC2)CC1
activity change, negative = inhibition: -1.92% (inactive)
//
chem smiles: COC(=O)N1CCC2(CC1)CCN(c1ccncc1)CC2
activity change, negative = inhibition: 6.46% (inactive)
//
chem smiles: N#Cc1ccc(CN2CC3(CCN(C(=O)c4ccco4)CC3)C2)cc1
activity change, negative = inhibition: -7.09% (inactive)
//
chem smiles: CN(C)c1ccc(-c2cncnc2Nc2ccccc2)cc1
activity change, negative = inhibition: -29.4% (inactive)
//
chem smiles: Clc1ccccc1-c1nc(NC2CCNCC2)c2ccccc2n1
activity change, negative = inhibition: -8.89% (inactive)
//
chem smiles: COc1ccc(NC(=O)N2CCCC3(CCN(S(=O)(=O)c4ccccc4)CC3)C2)cc1
activity change, negative = inhibition: -4.9% (inactive)
//
chem smiles: COc1ncc2nc(C)c(=O)n(C[C@H]3CCCO3)c2n1
activity change, negative = inhibition: -6.08% (inactive)
//
chem smiles: O=c1c(-c2ccc(F)cc2)nc2cncnc2n1-c1ccccc1
activity change, negative = inhibition: -2.6% (inactive)
//
chem smiles: COc1ccc(C(=O)N2CCC3(CCN(Cc4ccncc4)CC3)CC2)cc1
activity change, negative = inhibition: -7.79% (inactive)
//
chem smiles: COc1ccc(C(=O)N2CCC3(CCCN(c4ccccc4)C3)CC2)cc1
activity change, negative = inhibition: -1.35% (inactive)
//
chem smiles: CC(=O)N1CCC2(CC1)CN(c1cccc(-c3ccccc3)c1)C2
activity change, negative = inhibition: -4.65% (inactive)
//
chem smiles: O=C(c1cccc(F)c1)N1CCC2(CCN(Cc3nccs3)CC2)CC1
activity change, negative = inhibition: -8.17% (inactive)
//
chem smiles: Cn1cccc1C(=O)N1CCC[C@@]2(CCN(c3cccc(-c4ccccc4)c3)C2)C1
activity change, negative = inhibition: -10.7% (inactive)
//
chem smiles: COCC(=O)N1CCC2(CCCN(C(c3ccccc3)c3ccccc3)C2)CC1
activity change, negative = inhibition: -6.37% (inactive)
//
chem smiles: CC(=O)N1CCC2(CC1)CCN(c1ccccn1)CC2
activity change, negative = inhibition: 1.64% (inactive)
//
chem smiles: CCNc1ncc2nc(-c3ccc(Cl)cc3)c(=O)n(C)c2n1
activity change, negative = inhibition: 23.6% (inactive)
//
chem smiles: CC(=O)NCCNc1ncnc2ccc(-c3ccc4c(c3)OCO4)cc12
activity change, negative = inhibition: -23.9% (inactive)
//
chem smiles: COc1cccc(Nc2ncc3nc(-c4cccs4)c(=O)n(CCC#N)c3n2)c1
activity change, negative = inhibition: -26.3% (inactive)
//
chem smiles: O=S(=O)(c1ccccc1)N1CCC2(CC1)CN(C(c1ccccc1)c1ccccc1)C2
activity change, negative = inhibition: 15.1% (inactive)
//
chem smiles: COc1ccccc1-c1nc(NCCNC(C)=O)c2ccccc2n1
activity change, negative = inhibition: -11.3% (inactive)
//
chem smiles: COCC(=O)N1CCC2(CC1)CCN(c1ccc(-c3ccccc3)cc1)CC2
activity change, negative = inhibition: -8.62% (inactive)
//
chem smiles: CN1CCN(c2ccnc(-c3cccc(NS(C)(=O)=O)c3)n2)CC1
activity change, negative = inhibition: -6.86% (inactive)
//
chem smiles: O=C(c1csnn1)N1CCC2(CCCN(c3ccccn3)C2)CC1
activity change, negative = inhibition: -4.82% (inactive)
